Target: PLP⋅mitoNEET complex (Homo sapiens)
Sequence (Q9NZ45 33-108 limits assumed, one chain of several): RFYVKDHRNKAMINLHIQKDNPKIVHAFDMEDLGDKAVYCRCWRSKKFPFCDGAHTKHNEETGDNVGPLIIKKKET
Test: Reaction of candidate amino acid substrates with the PLP⋅mitoNEET complex, followed by spectrophotometry
Type: biochemical
Conditions: internal aldimine at λ=410 nm, signal at λ=330 nm, over 5000 sec
Source text: After PLP binding to the protein, the next step in many PLP-catalyzed enzymatic reactions is the formation of an external aldimine with one of several amino acid substrate such as cysteine, serine, alanine, or aspartate. Subsequently, an amazing diversity of chemistry can occur using this versatile coenzyme including transamination, racemization, and α,β-elimination. […]
Endpoint: Reaction with the PLP⋅mitoNEET complex

N[C@@H](COP(=O)(O)O)C(=O)O
did not react
N[C@@H](CO)C(=O)O
did not react
